This collection of values is drawn from patent US20260009799A1.

system: HT-29 excised tumors and tissues; assay: Ex vivo biodistribution in excised tumors and organs; set-up: species or system mice; conditions: ex vivo, 24 hours after administration, 1 nmol
Decision: Organ-to-muscle ratio, spleen (mean ± SD) beneath 1 gives Criterion met; Organ-to-muscle ratio, spleen (mean ± SD) meeting or exceeding 1 gives Criterion not met.

CC(=O)NC(CCCCn1cc(CCCC(=O)Nc2nnc(S(N)(=O)=O)s2)nn1)C(=O)NCCOCCOCCNC(=O)CCCCCN1/C(=C/C=C2\CCCC(/C=C/C3=[N+](CCCCS(=O)(=O)[O-])c4ccc(C(=O)NC[C@H](O)[C@@H](O)[C@H](O)[C@H](O)CO)cc4C3(C)C)=C2Oc2ccc(S(=O)(=O)O)cc2)C(C)(C)c2cc(C(=O)NC[C@H](O)[C@@H](O)[C@H](O)[C@H](O)CO)ccc21 (some centres unmarked) [Reference 2] | Criterion not met
CC1(C)C(/C=C/C2=C(Oc3ccc(S(=O)(=O)O)cc3)C(=C/C=C3/N(CCCCCC(=O)NCCCCCCCC(=O)Nc4nnc(S(N)(=O)=O)s4)c4ccc(C(=O)NC[C@H](O)[C@@H](O)[C@H](O)[C@H](O)CO)cc4C3(C)C)/CCC2)=[N+](CCCCS(=O)(=O)[O-])c2ccc(C(=O)NC[C@H](O)[C@@H](O)[C@H](O)[C@H](O)CO)cc21 | Criterion met
CC1(C)C(/C=C/C2=C(Oc3ccc(CCC(=O)NCCCCCCCC(=O)Nc4nnc(S(N)(=O)=O)s4)cc3)C(=C/C=C3/N(CCCCS(=O)(=O)O)c4ccc(S(=O)(=O)O)cc4C3(C)C)/CCC2)=[N+](CCCCS(=O)(=O)[O-])c2ccc(S(=O)(=O)O)cc21 [Reference 1] | Criterion not met

API: the following record is the query input.
Query: Lab note: Organ-to-muscle ratio, spleen (mean ± SD) threshold 1. Does this compound come in strictly under it? CC(=O)NC(CCCCn1cc(CCCC(=O)Nc2nnc(S(N)(=O)=O)s2)nn1)C(=O)NCCOCCOCCNC(=O)CCCCCN1/C(=C/C=C/C=C/C=C/C2=[N+](CCC(C)S(=O)(=O)[O-])c3ccc(C(=O)NC[C@H](O)[C@@H](O)[C@H](O)[C@H](O)CO)cc3C2(C)C)C(C)(C)c2cc(C(=O)NC[C@H](O)[C@@H](O)[C@H](O)[C@H](O)CO)ccc21 (some centres unmarked) [Reference 3]
Response: Criterion not met
